target: 5-hydroxytryptamine receptor 2A (Homo sapiens); type: functional, cell-based; further: assay procedure not described here
Sequence (P28223 whole entry): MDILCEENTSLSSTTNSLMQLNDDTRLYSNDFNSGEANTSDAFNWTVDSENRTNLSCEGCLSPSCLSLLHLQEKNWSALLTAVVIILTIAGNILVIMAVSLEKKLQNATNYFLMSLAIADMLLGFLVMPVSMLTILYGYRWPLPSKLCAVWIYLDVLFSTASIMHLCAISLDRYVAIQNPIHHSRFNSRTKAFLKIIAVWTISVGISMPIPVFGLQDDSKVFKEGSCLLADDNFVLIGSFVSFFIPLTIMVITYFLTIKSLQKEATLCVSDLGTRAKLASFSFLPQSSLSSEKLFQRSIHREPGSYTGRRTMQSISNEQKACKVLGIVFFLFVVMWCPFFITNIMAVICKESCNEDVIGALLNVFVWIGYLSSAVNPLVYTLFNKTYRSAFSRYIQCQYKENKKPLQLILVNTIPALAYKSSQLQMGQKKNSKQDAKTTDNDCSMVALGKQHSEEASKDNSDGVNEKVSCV
VALUE_KIND: AC50

Exercise: For the compound shown here, N[C@@H](Cc1cc(I)c(Oc2cc(I)c(O)c(I)c2)c(I)c1)C(=O)O , give the reported AC50.
Solution: > 30 µM

Exercise: Also C[C@H](Nc1ncnc2[nH]cnc12)c1cc2cccc(Cl)c2c(=O)n1-c1ccccc1 ?
Solution: 18 µM

Exercise: // same read-out, input: c1cnc2cc3c(cc2n1)[C@@H]1CNC[C@H]3C1
Solution: > 30 µM

Exercise: Same thing, different compound: CC1NCCOC1c1ccccc1 (stereo not given)
Solution: > 30 µM

Exercise: Try this compound too: CC(C)(N)Cc1ccccc1
Solution: > 30 µM

Exercise: Another compound to check: CC(=O)Oc1cccc2c1C(=O)c1c(OC(C)=O)cc(C(=O)O)cc1C2=O
Solution: 18 µM

Exercise: Please give the result for CCCCC[C@H](O)CC[C@@H]1[C@H]2Cc3cccc(OCC(=O)O)c3C[C@H]2C[C@H]1O too.
Solution: > 30 µM

Exercise: What do you have for CCOC(=O)O[C@]1(C(=O)COC(=O)CC)CC[C@H]2[C@@H]3CCC4=CC(=O)C=C[C@]4(C)[C@H]3[C@@H](O)C[C@@]21C [PREDNICARBATE] ?
Solution: > 10 µM

Exercise: Here is the next compound: OCC(O)COc1ccc(Cl)cc1 (stereo not given)
Solution: > 10 µM

Exercise: Same again, this time with CC(C(=O)O)c1ccc(C(=O)c2ccccc2)s1 (stereo not given)
Solution: > 30 µM

Exercise: # iterate: O=C(O)c1nn(Cc2ccc(Cl)cc2Cl)c2ccccc12
Solution: > 30 µM

Exercise: Continue with CCC[C@@]1(CCc2ccccc2)CC(O)=C([C@H](CC)c2cccc(NS(=O)(=O)c3ccc(C(F)(F)F)cn3)c2)C(=O)O1
Solution: 11 µM

Exercise: Would you kindly repeat that for CCN1C(=O)NC(c2ccccc2)C1=O (stereo not given) ?
Solution: > 30 µM

Exercise: Here is the next compound: CC1=C(C(=O)O)N2C(=O)[C@@H](NC(=O)[C@H](N)C3=CCC=CC3)[C@H]2SC1
Solution: > 30 µM

Exercise: What about this compound? COc1ccc(C(Cl)=C(c2ccc(OC)cc2)c2ccc(OC)cc2)cc1
Solution: > 30 µM

* * *

molecular target: Prostaglandin G/H synthase 1 (Homo sapiens); assay type: functional; further: assay procedure not described here
Sequence (P23219 whole entry): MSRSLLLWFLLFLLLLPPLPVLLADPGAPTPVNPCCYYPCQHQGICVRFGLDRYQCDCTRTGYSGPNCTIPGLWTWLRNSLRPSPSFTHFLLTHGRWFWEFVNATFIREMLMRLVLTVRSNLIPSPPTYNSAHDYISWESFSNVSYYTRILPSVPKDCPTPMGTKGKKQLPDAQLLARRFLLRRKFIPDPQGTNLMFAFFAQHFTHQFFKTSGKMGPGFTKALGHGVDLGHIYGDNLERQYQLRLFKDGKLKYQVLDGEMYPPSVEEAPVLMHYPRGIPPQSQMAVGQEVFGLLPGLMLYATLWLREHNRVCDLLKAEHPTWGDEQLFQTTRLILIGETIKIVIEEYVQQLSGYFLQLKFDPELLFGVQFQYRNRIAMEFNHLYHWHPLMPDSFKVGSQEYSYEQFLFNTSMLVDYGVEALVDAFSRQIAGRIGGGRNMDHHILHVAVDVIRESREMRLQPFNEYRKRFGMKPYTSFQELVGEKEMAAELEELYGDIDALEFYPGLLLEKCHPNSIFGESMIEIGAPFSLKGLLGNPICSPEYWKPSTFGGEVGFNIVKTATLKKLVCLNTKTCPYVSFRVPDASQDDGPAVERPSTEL
VALUE_KIND: AC50

Exercise: Could you tell me which AC50 is on file for CC(=O)O[C@]1(C(C)=O)CC[C@H]2[C@@H]3CCC4=CC(=O)CCC4=C3[C@@H](c3ccc(N(C)C)cc3)C[C@@]21C [ULIPRISTAL ACETATE] ?
Solution: > 30 µM

Exercise: Item: CC(NCCC(c1ccccc1)c1ccccc1)c1ccccc1 (stereo not drawn)
Solution: > 30 µM

Exercise: O=C1[C@@H]2[C@H]3CC[C@H](C3)[C@@H]2C(=O)N1C[C@@H]1CCCC[C@H]1CN1CCN(c2nsc3ccccc23)CC1 ?
Solution: > 30 µM

Exercise: Entry COc1c(OCCCN2CCOCC2)ccc2c1N=C(NC(=O)c1cnc(N)nc1)N1CCN=C21 please
Solution: > 30 µM

Exercise: Here is the next compound: C[C@@H](CN1CC(=O)NC(=O)C1)N1CC(=O)NC(=O)C1
Solution: 5.98 µM

Exercise: Next compound: Cn1c(CCCC(=O)O)nc2cc(N(CCCl)CCCl)ccc21
Solution: 5.8 µM

Exercise: // next record CN1CCN(C(c2ccccc2)c2ccc(Cl)cc2)CC1 (stereo not drawn)
Solution: > 30 µM

Exercise: Can you check C[C@]12CC[C@@H]3c4ccc(OC(=O)N(CCCl)CCCl)cc4CC[C@H]3[C@@H]1CC[C@@H]2OP(=O)(O)O [ESTRAMUSTINE PHOSPHATE] next?
Solution: > 30 µM

Exercise: Quick one: C#C[C@]1(OC(C)=O)CC[C@H]2[C@@H]3CCC4=CC(=O)CC[C@@H]4[C@H]3CC[C@@]21C [NORETHINDRONE ACETATE]
Solution: > 30 µM

Exercise: Also check CC(C)N1CCOC(c2cccc(C(F)(F)F)c2)C1 (stereo not drawn)
Solution: > 30 µM

Exercise: Also O=P1(N(CCCl)CCCl)NCCCO1 (stereo not drawn) [CYCLOPHOSPHAMIDE ANHYDROUS] ?
Solution: > 30 µM

Exercise: Would you kindly repeat that for COc1cccc2c1C(=O)c1c(O)c3c(c(O)c1C2=O)C[C@@](O)(C(=O)CO)C[C@@H]3O[C@H]1C[C@H](N)[C@H](O[C@@H]2CCCCO2)[C@H](C)O1 ?
Solution: 1.57 µM

Exercise: Now this one: N=C(N)NCC1COc2ccccc2O1 (stereo not drawn)
Solution: > 30 µM

Exercise: Quick one: O=NN(CCCl)C(=O)NC1CCCCC1
Solution: > 30 µM

Exercise: Ok, now CC1(C)CCC(C)(C)c2cc(NC(=O)c3ccc(C(=O)O)cc3)ccc21
Solution: > 30 µM

Exercise: Similarly, CC(C)N1CCN(c2ccc(OCC3COC(Cn4cncn4)(c4ccc(Cl)cc4Cl)O3)cc2)CC1 (stereo not drawn) ?
Solution: > 30 µM

Exercise: What do we get for CC1=C(C/C=C(\C)CCC[C@H](C)CCC[C@H](C)CCCC(C)C)C(=O)c2ccccc2C1=O ?
Solution: 13.4 µM

Exercise: Cool, now Cc1ccc(Cl)c(Nc2ccccc2C(=O)O)c1Cl
Solution: 0.0171 µM

Exercise: And what about the compound CC(C)Cc1ccc(C(C)C(=O)OCc2ccccn2)cc1 (stereo not drawn) ?
Solution: 10.8 µM

Exercise: Next compound up: COC(=O)N(C)c1c(N)nc(-c2nn(Cc3ccccc3F)c3ncccc23)nc1N
Solution: > 30 µM

Exercise: Next compound up: CC(=O)OC1CN2CCC1CC2 (stereo not drawn)
Solution: > 30 µM

Exercise: Could you do the same for NC(=O)C1(N2CCCCC2)CCN(CCCC(=O)c2ccc(F)cc2)CC1 , please?
Solution: > 30 µM

Exercise: Try the compound Cc1cn(-c2cc(NC(=O)c3ccc(C)c(Nc4nccc(-c5cnccn5)n4)c3)cc(C(F)(F)F)c2)cn1
Solution: > 30 µM

* * *

Data export: AC50 values recorded with Sodium-dependent noradrenaline transporter (Homo sapiens).
Sequence (P23975 whole entry): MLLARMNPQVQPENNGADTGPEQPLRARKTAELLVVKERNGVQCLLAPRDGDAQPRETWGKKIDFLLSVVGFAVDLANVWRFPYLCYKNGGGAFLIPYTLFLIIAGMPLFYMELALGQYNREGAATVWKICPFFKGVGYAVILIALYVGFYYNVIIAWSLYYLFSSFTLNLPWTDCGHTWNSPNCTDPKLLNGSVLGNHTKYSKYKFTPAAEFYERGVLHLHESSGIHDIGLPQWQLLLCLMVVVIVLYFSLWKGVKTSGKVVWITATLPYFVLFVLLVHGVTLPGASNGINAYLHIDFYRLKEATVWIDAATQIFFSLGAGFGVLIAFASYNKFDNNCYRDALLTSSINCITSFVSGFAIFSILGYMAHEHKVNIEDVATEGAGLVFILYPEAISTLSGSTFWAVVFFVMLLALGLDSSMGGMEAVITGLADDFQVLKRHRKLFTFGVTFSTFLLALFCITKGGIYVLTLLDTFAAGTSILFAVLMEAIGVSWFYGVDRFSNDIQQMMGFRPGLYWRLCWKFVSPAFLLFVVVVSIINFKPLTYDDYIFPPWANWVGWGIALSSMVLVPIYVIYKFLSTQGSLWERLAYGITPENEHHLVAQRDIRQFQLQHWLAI

Exercise: Please give the measured AC50 for this compound: CNC1(c2ccccc2Cl)CCCCC1=O (configuration not stated)
Solution: > 30 µM

Exercise: Another compound: Cc1cn(-c2cc(NC(=O)c3ccc(C)c(Nc4nccc(-c5cnccn5)n4)c3)cc(C(F)(F)F)c2)cn1
Solution: > 30 µM

Exercise: Check COC(=O)Nc1nc2cc(C(=O)c3ccc(F)cc3)ccc2[nH]1 too.
Solution: > 10 µM

Exercise: Would you mind doing CCOc1ccc(Cc2nccc3cc(OCC)c(OCC)cc23)cc1OCC as well?
Solution: > 30 µM

Exercise: How about COc1cc(C(=O)NCc2ccc(OCCN(C)C)cc2)cc(OC)c1OC [TRIMETHOBENZAMIDE] ?
Solution: 24.1 µM

Exercise: And then O=C(OOC(=O)c1ccccc1)c1ccccc1 [BENZOYL PEROXIDE] , what is it?
Solution: > 30 µM

Exercise: Entry to check: CC1(C)C[C@@H]1C(=O)N/C(=C\CCCCSC[C@H](N)C(=O)O)C(=O)O
Solution: > 30 µM

Exercise: Also check OCc1ccccc1
Solution: > 30 µM

Exercise: # iterate: C[C@@H](CN1CC(=O)NC(=O)C1)N1CC(=O)NC(=O)C1
Solution: > 30 µM

Exercise: How about this compound: O=c1[nH]c(=O)n([C@H]2C[C@H](O)[C@@H](CO)O2)cc1/C=C/Br
Solution: > 30 µM

Exercise: Try this compound too: CCCCC(=O)O[C@H]1CC[C@H]2[C@@H]3CCc4cc(O)ccc4[C@H]3CC[C@]12C [ESTRADIOL VALERATE]
Solution: > 30 µM

Exercise: Same thing, different compound: CO[C@H]1/C=C/O[C@@]2(C)Oc3c(C)c(O)c4c(c3C2=O)C2=NC3(CCN(CC(C)C)CC3)NC2=C(NC(=O)/C(C)=C\C=C\[C@H](C)[C@H](O)[C@@H](C)[C@@H](O)[C@@H](C)[C@H](OC(C)=O)[C@@H]1C)C4=O
Solution: > 30 µM

* * *

Quick record: AC50, Adenosine receptor A3 (Homo sapiens, UniProt P0DMS8).
Enter your answer as a number in µM; do not include the unit.

Exercise: Name the recorded AC50 for COC(=O)Nc1nc2cc(C(=O)c3ccc(F)cc3)ccc2[nH]1 .
Solution: 8.69

Exercise: Thanks! And O=c1[nH]c2ccccc2n1CCN1CCN(c2cccc(C(F)(F)F)c2)CC1 ?
Solution: 15.6

Exercise: Likewise for CCOC1O[C@H]([C@@H](COCc2ccccc2)OCc2ccccc2)[C@H](OCc2ccccc2)[C@H]1O (stereo partly drawn) [TRIBENOSIDE] ?
Solution: 14

Exercise: How about this compound: O=C1Nc2ccccc2C1(c1ccc(O)cc1)c1ccc(O)cc1
Solution: 5.01
